system: MDA-MB-435
The categories you may choose from are active, inactive

Completed entries (count: 6):
>  <Compound>
O=c1c2cc(-c3ccccc3)sc2ncn1Cc1ccc(Cl)c(Cl)c1

>  <Assigned Label>
inactive

$$$$
>  <Compound>
CN1CCN(CCOc2ccc(-c3cnc4c(-c5cccc(F)c5)cnn4c3)cc2)CC1

>  <Assigned Label>
inactive

$$$$
>  <Compound>
O=C(/C=C/c1ccc(C(F)(F)F)cc1)Nc1ccc(C=C2c3ccccc3C(=O)c3ccccc32)cc1

>  <Assigned Label>
inactive

$$$$
>  <Compound>
O=C(Nc1ccc(F)cc1F)c1cc(Cl)ccc1O

>  <Assigned Label>
inactive

$$$$
>  <Compound>
Cc1cc(Nc2nc(C(=O)Nc3ccccc3)nc3ccccc23)n[nH]1

>  <Assigned Label>
inactive

$$$$
>  <Compound>
CSc1ncc(Br)c(Sc2nc(N)nc3nc[nH]c23)n1

>  <Assigned Label>
inactive

$$$$

Entry "NS(=O)(=O)c1ccc(N=Nc2c(O)[nH]c3ccc(C(=O)NCc4ccncc4)cc23)cc1" : call = ? inactive

What outcome does the record of this test show for "Cc1ncc(C(=O)Nc2ccc(CN3CCN(C)CC3)c(C(F)(F)F)c2)cc1C#Cc1ccc(N)nc1" ? active

Which outcome was entered for the compound "COC(=O)C12CC(NC(=O)c3csc([C@@H](C[C@H](C(C)C)N(C)C(=O)[C@@H](NC(=O)[C@H]4CCCCN4C)C4CC4)OC(C)=O)n3)(C1)C2" in this test? active

Dear colleague, could you share the recorded outcome for "CCCCCCCCOC(=O)c1c(C)[nH]c(/C=C2\N=C(c3ccc[nH]3)C=C2OC)c1C" when you have a moment? active

Field: outcome | Entry: "CN(C)c1ccc(/C=C2\N=C(c3ccccc3)N(c3cc(C(F)(F)F)ccc3Cl)C2=O)cc1" inactive

Tell me the assay call for "C=C1C(=O)O[C@H]2[C@H]1CC/C(COC(=O)NCc1ccc(OC)cc1)=C\CC[C@@]1(C)O[C@@H]21" please. inactive

How did this test come out for "CN1CCN(Cc2ccc(NC(=O)c3cncc(C#Cc4cnc(N)cc4C#N)c3)cc2C(F)(F)F)CC1" ? inactive

Test call for this compound, please: CN(Cc1ccc(C(F)(F)F)cc1)CC(O)C(=O)Nc1ccc(Cl)cc1 (centres undefined) inactive

====

test system: HL-60(TB) leukemia; experiment: NCI tumour cell line growth inhibition, 48 h
Where a SMILES comes first, the peptide text is derived from it. [ ]: non-standard residue; d: D form. The star is where a group is joined. Bn2Val = CC(C)[C@@H](C(=O)*)N(Cc1ccccc1)Cc1ccccc1; NMeV = CN[C@H](C(=O)O)C(C)C; X29 = COc1ccc(CN*)c(OC)c1; dNMeA = CN[C@H](C)C(=O)O
Lab note: compare TGI against 4 µM. Equal or greater, write Criterion met. Smaller, write Criterion not met.

>  <Compound>
Cc1ccc(N(O)C(C)(C)C)cc1

>  <Assayed Target>
HL-60(TB) leukemia

>  <Assigned Label>
Criterion met

$$$$
>  <Compound>
CC1CN(S(=O)(=O)c2oc(-c3ccc(Cl)cc3)nc2C#N)CC(C)O1 (configuration not stated)

>  <Assayed Target>
HL-60(TB) leukemia

>  <Assigned Label>
Criterion met

$$$$
>  <Compound>
CCOC(=O)CN(Cn1cncn1)Cn1cncn1

>  <Assayed Target>
HL-60(TB) leukemia

>  <Assigned Label>
Criterion met

$$$$
>  <Compound>
C=C/C(C)=C/C[C@]1(C)[C@H](C)[C@@H](OC(=O)CCC)[C@H](O)[C@@]23C(=C[C@H](OC)C[C@@H]12)[C@@H](OC(=O)CCC)O[C@H]3OC(C)=O

>  <Assayed Target>
HL-60(TB) leukemia

>  <Assigned Label>
Criterion not met

$$$$

Textbook exercise: given the entry "C#CCNC(=O)ON1C(=O)CCC1=O" , state whether its TGI is greater than or equal to 4 µM. Criterion met

Record COC(=O)C1C(=O)CC2CCCCC21 (configuration not stated) ; criterion: TGI no lower than 4 µM. Met? Criterion met

Check if TGI >= 4 µM (inclusive). Item: Cc1cc(NC(=O)C2C3C=CC(O3)C2C(=O)O)no1 (configuration not stated) Criterion met

For this compound, is measured TGI 4 µM or higher? Cc1cn(C2CC(CCCO)C(CO)O2)c(=O)[nH]c1=O (configuration not stated) Criterion met

Has "Cc1ccc(S(=O)(=O)N=NC=C2c3ccccc3N(O)c3ccccc32)cc1" a recorded TGI greater than or equal to 4 µM? Criterion met

Determine whether this compound has TGI no lower than 4 µM: COc1ccc(CNC(=O)[C@@H]2CCCN2C(=O)[C@@H](C)N(C)C(=O)[C@H](C(C)C)N(C)C(=O)[C@@H](NC(=O)[C@H](C(C)C)N(Cc2ccccc2)Cc2ccccc2)C(C)C)c(OC)c1 (Bn2Val-V[NMeV][dNMeA]P-X29) Criterion not met

Could you tell me if the measured TGI of COC(=O)C1=C(CS(=O)c2ccc([N+](=O)[O-])cc2[N+](=O)[O-])C2C=CC1C2 (configuration not stated) reaches 4 µM or more? Criterion met

These data points were gathered from PubChem BioAssay (NCI).
